system: Saccharomyces cerevisiae; test: protein stability index of tFT-peptide fusion (C-terminal peptide) (PSI (0-1 scale)); higher = more stable (slower turnover); settings: genetic background: das1 deletion; temperature: 30 C
protein stability index: recorded values
Please give the numeric answer without any surrounding text.

# annotated cases, reported protein stability index shown
# SEQUENCE, REPORTED_VALUE
measured = [
    ("DIFEDSSDEEQS [SPL2 C-terminal 12 aa]", 0.718),
    ("VAPKPKTKQEKK [WRS1 C-terminal 12 aa]", 0.684),
    ("DNVEQRVLKQYM [EMC3 C-terminal 12 aa]", 0.686),
    ("DNTKESKDVKMN [RTT102 C-terminal 12 aa]", 0.688),
    ("ALDAELDAYMKG [YRA2 C-terminal 12 aa]", 0.679),
]

Exercise: Field request: protein stability index | item: EANLKVLNGLEI [YPR148C C-terminal 12 aa]
Solution: 0.687

Exercise: Field request: protein stability index | item: ELPNGKVIYSRK [ERJ5 C-terminal 12 aa]
Solution: 0.687

Exercise: Field request: protein stability index | item: LTYNTSCQRRQK [YOR161W-A C-terminal 12 aa]
Solution: 0.715

Exercise: Field request: protein stability index | item: LKSLSKYSVQNS [CTF3 C-terminal 12 aa]
Solution: 0.686

Exercise: Field request: protein stability index | item: FASGKPIKKVKN [DYS1 C-terminal 12 aa]
Solution: 0.698

Exercise: Field request: protein stability index | item: GIHPPEPIAAAA [KTI11 C-terminal 12 aa]
Solution: 0.3

Exercise: Field request: protein stability index | item: VTSKSALESIFP [YGP1 C-terminal 12 aa]
Solution: 0.73

----------
system: Saccharomyces cerevisiae; assay: protein stability index of tFT-peptide fusion (C-terminal peptide) (PSI (0-1 scale)); higher = more stable (slower turnover); details: genetic background: wild type; temperature: 30 C
MEASURED_ATTRIBUTE: protein stability index
Please give the numeric answer without any surrounding text.

# SEQUENCE, protein stability index
measured = [
    ("NQHKKGQKKKGI", 0.684),
    ("DGQNPVAFGSHG", 0.691),
    ("SQQFGSILPGEL", 0.694),
]

Exercise: Field request: protein stability index | item: YCTVDECWGRWH
Solution: 0.709

Exercise: Field request: protein stability index | item: SFVVFGSFFCFC
Solution: 0.572

Exercise: Field request: protein stability index | item: LKLLIPPSFSLI
Solution: 0.611

Exercise: Field request: protein stability index | item: PLPTLPFPCSPS
Solution: 0.706

Exercise: Field request: protein stability index | item: ALRLVAFFWVPG
Solution: 0.422

Exercise: Field request: protein stability index | item: NMVIRLIEKRKK
Solution: 0.663

Exercise: Field request: protein stability index | item: TPVPIARLRESH
Solution: 0.709

----------
test system: Saccharomyces cerevisiae; assay: protein stability index of tFT-peptide fusion (C-terminal peptide) (PSI (0-1 scale)); higher = more stable (slower turnover); details: genetic background: cdc34-1; temperature: 37 C
MEASURED_ATTRIBUTE: protein stability index
Please give the numeric answer without any surrounding text.

# SEQUENCE, protein stability index
data = [
    ("ECCKRFCCRFVA", 0.627),
    ("IVIFQTAYVVRI", 0.159),
    ("IISICLYFLVRC", 0.223),
    ("TVVIFLCSYITT", 0.183),
    ("GFLVPSSPRCHQ", 0.708),
    ("SSVFLGWLIVCY", 0.0861),
    ("FLYIPLYCRLSF", 0.286),
    ("FAVHHLRYILLV", 0.227),
]

Exercise: Field request: protein stability index | item: VFSAIPDWLILA
Solution: 0.492

Exercise: Field request: protein stability index | item: ALLYIVVGWSLS
Solution: 0.0455

Exercise: Field request: protein stability index | item: PDRSTILHISGF
Solution: 0.721

Exercise: Field request: protein stability index | item: PPGLLPPCLLVV
Solution: 0.358

Exercise: Field request: protein stability index | item: RRLYERNKNNKQ
Solution: 0.696

Exercise: Field request: protein stability index | item: LVLGVEVCFVLG
Solution: 0.102

Exercise: Field request: protein stability index | item: GRPYHLCLFSCF
Solution: 0.646

Exercise: Field request: protein stability index | item: GSRVICMVVATM
Solution: 0.546

Exercise: Field request: protein stability index | item: GYRGRITRLVNG
Solution: 0.661

Exercise: Field request: protein stability index | item: FGVLGCAWVWVG
Solution: 0.394

Exercise: Field request: protein stability index | item: GVLLLGSYQWVG
Solution: 0.306

Exercise: Field request: protein stability index | item: KHKIIGKYQRQI
Solution: 0.704

Exercise: Field request: protein stability index | item: RRTTIFDTKEPP
Solution: 0.561

Exercise: Field request: protein stability index | item: LHSDHLRIILRI
Solution: 0.597

Exercise: Field request: protein stability index | item: RVCVFVLFGLCF
Solution: 0.352

Exercise: Field request: protein stability index | item: LLVVGPVRLVVH
Solution: 0.214

Exercise: Field request: protein stability index | item: RQINEKKKLYMI
Solution: 0.513

Exercise: Field request: protein stability index | item: RSFPCITVFIRA
Solution: 0.514

Exercise: Field request: protein stability index | item: FIGVLVFSWLLF
Solution: 0.244

Exercise: Field request: protein stability index | item: IYNIIFKYRTIT
Solution: 0.525

Exercise: Field request: protein stability index | item: PCVLAIYVWIRS
Solution: 0.0479
